Test system: MS2 coat protein
Test: apparent KD of MS2 coat protein; designed switch direction (-1 OFF switch, 1 ON switch): -1; higher = weaker reporter binding
Conditions: Eterna round: R95; input ligand: none
Categories are assigned from the measured apparent KD of MS2 coat protein using these intervals: I (below 20 nM), II (20 nM to below 50 nM), III (50 nM or more)

sequence_record	class_assignment
CUAGAUCUUCGGAUCUAGUACAUGAGGAUCACCCAUGUGACGAGUUACAUGAAAAACAAGCUUUUUGCUCGUCUUAU [Sensor v3 - Turn-off variant 1 - 8] (puzzle: Sensor v3, turn-off variant 1)	II
AGUAGUAGUAUCCGAUCCUACAUGAGGAUCACCCAUGUAGCUAGACGUGCACGCGAUGCUCGUCGGACUACCAGAUG [salish99_TOv1_r3_043] (puzzle: Sensor v3, turn-off variant 1)	III
ACAAGCUUUUUGUUCGUCUUAUAAAAUCCUAAGAGGAUAACAUGAGGAUCACCCAUGUAACAAAGACGGACUCAUGU [Sesor Array 13 - Jieux - Sensor v3, turn-off variant 2] (puzzle: Sensor v3, turn-off variant 2)	I
UAAUACAAGUAGAGAUUCUACAUGAGGAUCACCCAUGUGCUCGUCUUAUAAAGUACUAUCACGAAAGUGAUAGUACU [Mat - Sensor v3 - turn-off var 1 - Eli Mod - D98] (puzzle: Sensor v3, turn-off variant 1)	I
GGCCCUAAGGUCAGAUCCACAAGCUUUUUGCUCGUUUUAACAUGAGGAUCACCCAUGUCUAGUGGAUUUGAUCCUCU [Sensor v3, turn-off variant 2 (MOD of Indiso v.8)] (puzzle: Sensor v3, turn-off variant 2)	II
CUGGUCCGAGGAUAUAUUAAGUGAUACAUGAGGAUCACCCAUGUAAUUUGAUGGAAAUAAAUAGAAGGCGGACUAG [Mat - Exclusion 5 - JL mod - D44] (puzzle: Exclusion 5)	III
AGUAACCGUCACGAAAGUGAUGGUUACACAAGAAAUGAAACAUGAGGAUCACCCAUGUCCUCAUUUGCUCGUCUUAU [Sensor 3 - 38] (puzzle: Sensor v3, turn-off variant 2)	III
AGUACUAACACGAAAGUGUUUGUACAAUAAGCUUGUGAAACAUGAGGAUCACCCAUGUCCUCAUAAGCUCGUCUUAU [salish99_TOv2_r3_035] (puzzle: Sensor v3, turn-off variant 2)	I
GGGAUGUCAGGAUAUACAUGAGGAUCACCCAUGUAGAGAUAAGAUAGGGAAAGAGUAGGUAGAAGGGACGAGAG [JR_Exclu3_Sub044] (puzzle: Exclusion 3)	II

* * *

Test system: MS2 coat protein
Experiment: apparent KD of MS2 coat protein; designed switch direction (-1 OFF switch, 1 ON switch): 1; higher = weaker reporter binding
Settings: input ligand: none
# thresholds on apparent KD of MS2 coat protein define classes: LOW: < 50 nM; MID: ≥ 50 nM and < 400 nM; HIGH: ≥ 400 nM

sequence_record	class_assignment
GUAGCAUACCGAGGAUAUUCAUAUUAUACAUGAGGAUCACCCAUGUUAGGCCGAUUACGGCCUUGGGAGAAGGCGGAAUGCUAC [Xeonanis - 20 Mod20] (Eterna round: R96, puzzle: Same State NG 2)	MID
UAACGCGCAUGCAAGGAUAUGUGCAGAGCUACAUGAGGAUCACCCAUGUGGUUAUGCUAUUGAAAACAGAAGGUGCCCUCGCUCA [Ceties] (Eterna round: R96, puzzle: Same State 2)	LOW
AGAUCAUGACGAGGAUAUGGUACAUGAGGAUCACCCAUGUAUGUACCACGACGGAAACGUCGAAUCCAGAAGGCGUCGUGGUCA [Mat - Same State NG 2 - JL mod - D22] (Eterna round: R96, puzzle: Same State NG 2)	MID
AUUAUUUAUGCAGGAUAUGAUUAACAUGAGGAUCACCCAUGUGGUGUUGUGAGUAAGGAGAGUGAUCAGAAGGGCAUUAUUUUU [JMF's solution 45] (Eterna round: R96, puzzle: Same State NG 2)	MID
AUUGCUUUCGCAGGAUAUGAUGCGAAAAUUGCGUCAGAAGGGUGGAGUCUCUCAUUGCUAGAGGACAUGAGGAUCACCCAUGUC [SameState NG1 #85] (Eterna round: R96, puzzle: Same State NG 1)	HIGH
GGAAUAUGAUGUUACAUGAGGAUCACCCAUGUAGUAAUAACUAAGGAUAUCUGAGGAGGAGGAGAAGAGAAGGUAGGAUCAUAA [AK SSNG3-V2-10] (Eterna round: R96, puzzle: Same State NG 3)	LOW
CCAGGACAUGAGGAUCACCCAUGUGCUUAAUAUGGAGAAUCUCAGGAUAUCAUGAGGAUCACCCAUGAGAAGGGAGAUCCGAGG (Eterna round: R96, puzzle: Same State NG 3)	MID
GUGGAGAAUUAAGGAUAUCGAGUCAAGAUGUUAAACAUGAGGAUCACCCAUGUGGGUUGCGGUAUCGAGAAGGUAAAUUACGGG [salish99_SSNG2_r04_504] (Eterna round: R96, puzzle: Same State NG 2)	LOW
AUUAUCAAUGCAGGAUAUGAUUAACAUGAGGAUCACCCAUGUGGUGUUGUGAGUAAGGAGAGUGAUCAGAAGGGCAUUUUUUUU [JMF's solution 26] (Eterna round: R96, puzzle: Same State NG 2)	HIGH
GGUAUCGGCACAGGAUAUGCUAUCCUUUGGGUAGCAGAAGGGUGGACAUGAGGAUCACCCAUGUAGGUGCCAGGGCGUGAGCCC [JL SSNG1 1.87] (Eterna round: R96, puzzle: Same State NG 1)	HIGH
CGUCGUUUGAUAGGAUAUCGCUAUACAUGAGGAUCACCCAUGUUUACCACGCUGGUUUUUCAUUCCGAGAAGGAUUCUGAUGUU [salish99_SSNG02_r04_021] (Eterna round: R96, puzzle: Same State NG 2)	LOW
UUGAAGAACUAAGGAUAUUGAAUACAUAUGUUUAACAUGAGGAUCACCCAUGUGGGUUGCGGUGUCGAGAAGGUAGAAUAAUAG [Mat - same State NG 2 - JL mod - D96] (Eterna round: R96, puzzle: Same State NG 2)	MID
AAAUUACUCCGAGGAUAUGCAUGGCUUUGUGCCGCAGAAGGUGGAUCGACGGACAUGAGGAUCACCCAUGUACACUGUCCUAUA [Gerite] (Eterna round: R96, puzzle: Same State NG 1)	LOW
GGUCCAGCGAGAGCUGGACAAAAGCAUGUACAUGAGGAUCACCCAUGUCAUGUACAAGCUUUUUGCUCGUCUUAAAA [Mat - Sensor - JL mod - D88] (Eterna round: R96, puzzle: Sensor for hsa-mir-208a)	HIGH
GGCGUAUAAACAUGAGGAUCACCCAUGUUGCGGAGACGCAAUGAGGAUAUCGAUGGGUUUCCCGUCGAGAAGGCGUGGGUCGCC [JL SSNG3 3.95] (Eterna round: R96, puzzle: Same State NG 3)	LOW
UUAAUAAAGUAAGGAUAUACAUGAGGAUCACUCGUAGAAGGUACUAAACAUGAGGAUCACCCAUGUACCGGUCCGUAGACUGGA [Mat - Same State NG 1 - JL mod - D1] (Eterna round: R96, puzzle: Same State NG 1)	MID
AGACAUGAGGAUCACCCAUGUAUACACUGUAUCAGUGUAACAUAGGAUAUCCACCGCCAUGCUGUGGAGAAGGAUGAAACGGGC [Matearen] (Eterna round: R96, puzzle: Same State NG 3)	MID
